target: DRB1*0401 (Homo sapiens, UniProt P01903+P01911, A100K/A169T/F76Y/I96L/K127E/L162R/M171V/N62H/P40V/Q125Y/R42H/S133A/S149N/S66Y/V115G/V209L/W38E); construct: made in house; host or cells: EBV-transformed homozygous human B cell lines, transfected fibroblasts or single-allele 721.221 transfectants; test: biochemical; type: binding; conditions: read-out: IC50 nM to purified HLA DRB1*0401

# Given Smiles, IC50
rows = [
    ("CC[C@H](C)[C@H](NC(=O)CNC(=O)[C@@H](NC(=O)[C@@H](NC(=O)[C@H](CO)NC(=O)[C@H](C)NC(=O)[C@H](C)NC(=O)[C@@H](NC(=O)[C@@H](NC(=O)[C@H](CC(C)C)NC(=O)[C@@H]1CCCN1C(=O)[C@@H](N)CC(=O)O)C(C)C)C(C)C)[C@@H](C)CC)[C@@H](C)CC)C(=O)N[C@@H](CC(C)C)C(=O)N[C@@H](Cc1c[nH]cn1)C(=O)N[C@@H](CC(C)C)C(=O)O", "92 nM"),
    ("CC[C@H](C)[C@H](NC(=O)[C@@H](NC(=O)[C@H](CCSC)NC(=O)[C@H](CC(=O)O)NC(=O)[C@@H](NC(=O)[C@H](CC(C)C)NC(=O)[C@H](Cc1ccc(O)cc1)NC(=O)[C@H](CCCNC(=N)N)NC(=O)[C@H](CO)NC(=O)[C@H](C)N)[C@@H](C)O)[C@@H](C)O)C(=O)N[C@@H](CCC(=O)O)C(=O)N[C@@H](CCC(=O)O)C(=O)N[C@@H](CCSC)C(=O)N[C@@H](CO)C(=O)N[C@@H](CCCNC(=N)N)C(=O)O", "67 nM"),
]
